Just for reference, the supplement of paper PMC5412046 is where these values come from.

For each entry below, report its viability value.
# System: SB.msgc-1
# test.name: viability at highest tested concentration (MAXR) relative to DMSO; higher = less cytotoxic
# run.conditions: SB.msgc-1 (sporadic gastric cancer)
Answers are plain numbers, in %.

{"compound": "NC(=O)NO [Hydroxyurea] (top concentration 46.0829 µM)", "experimental.endpoint": "viability", "reading": 42.4}
{"compound": "COC1=CC2=C(C=C1CC3=C(F)C(=CC=C3)Cl)C(=O)\\C(=C/N2[C@H](CO)C(C)C)C(O)=O [Elvitegravir] (top concentration 46.0829 µM)", "experimental.endpoint": "viability", "reading": 48.4}

# batch: return viability for each of the 6 compounds below
1. O=C(O)C1=NC(C(=O)O)CC(/C=C/N2c3cc(O)c(OC4OC(CO)C(O)C(O)C4O)cc3CC2C(=O)O)=C1 (stereo not drawn) [Betanin] (top concentration 46.0829 µM)
2. CCN1CCN(CC1)CC(=O)NC2=CC=C(C3=C2C4=C(S3)C=CC=C4)C5=C6O\C(=C/C(=O)C6=CC=C5)N7CCOCC7 (top concentration 46.0829 µM)
3. N=C1N[C@H]2[C@H](CS[C@H]2CCCCC(=O)O)N1 [2-Iminobiotin] (top concentration 23.0415 µM)
4. O=c1oc2c(O)c(O)cc3c(=O)oc4c(O)c(O)cc1c4c23 [Ellagic acid] (top concentration 46.0829 µM)
5. O=C(NNC(=O)c1ccc(CN[S+](=O)([O-])c2ccc(F)c(Cl)c2)cc1)c1ccccc1 [TCN-201] (top concentration 46.0829 µM)
6. NC/1=N/C(=O)N(/C=N1)[C@@H]2O[C@H](CO)[C@@H](O)[C@H]2O [5-Azacitidine] (top concentration 46.0829 µM)

Response:
1: 78.6; 2: 4.65; 3: 124; 4: 80.7; 5: 98.1; 6: 19.9

For each of the compounds below, note its viability.
1. CN[C@@H](C)C(=O)N[C@H]1CN(C(=O)CC(C)C)CC[C@H]2CC[C@@H](C(=O)NC(c3ccccc3)c3ccccc3)N2C1=O [AT-406] (top concentration 46.0829 µM)
2. C\C1=C\N([C@H]2C[C@H](N=[N+]=[N-])[C@@H](CO)O2)C(=O)NC1=O [Zidovudine] (top concentration 46.0829 µM)
3. O=C(Nc1nc2ccccc2n1CCN1CCOCC1)c1cccc([N+](=O)[O-])c1 (top concentration 46.0829 µM)
4. CN1c2ccccc2C(=O)N2CCc3c([nH]c4ccccc34)C21 (stereo not drawn) [Evodiamine] (top concentration 46.0829 µM)
5. O=NN(CCCl)C(=O)NC1CCCCC1 [Lomustine] (top concentration 46.0829 µM)
6. COCCOc1nc(-c2ccc(Cl)c(Cl)c2)n(-c2ccc(NC(=O)CCl)cc2)n1 [MI-2] (top concentration 46.0829 µM)
7. ClC1=CC\2=C(OC3=C(C=CC=C3)\N=C2N4CCNCC4)C=C1 [Amoxapine] (top concentration 46.0829 µM)

Response:
1. 18.7
2. 15.7
3. 32.7
4. 65
5. 70.4
6. 59.3
7. 57.2

Can you give me viability for all of these, one by one?
1. Cc1cc(C(=O)N2CCN(c3cccc(Cl)c3)CC2)n(-c2ccccc2)n1 [XRP-44X] (top concentration 46.0829 µM)
2. C/C=C(/C(=C/C)c1ccc(O)cc1)c1ccc(O)cc1 [Dienestrol] (top concentration 46.0829 µM)
3. COc1c(N2C[C@@H]3CCCN[C@@H]3C2)c(F)cc2c(=O)c(C(=O)O)cn(C3CC3)c12.Cl.O [Moxifloxacin hydrochloride] (top concentration 46.0829 µM)

Response:
1: 35.7; 2: 70.9; 3: 67.6
